biological target: T1, human CD26-derived 13 mer peptide 21 (human); assay: peptide microarray
T1 peptide: VFLENSTFDEFGH
Mean Signal Value values for the binders below.
Quick one: just the number, no unit, thanks!

See these solved cases before continuing.
| binder | Mean Signal Value |
| --- | --- |
| rhuMAb 411 (antibody, human IgG1, kappa, V domains shown, also called X411) VH: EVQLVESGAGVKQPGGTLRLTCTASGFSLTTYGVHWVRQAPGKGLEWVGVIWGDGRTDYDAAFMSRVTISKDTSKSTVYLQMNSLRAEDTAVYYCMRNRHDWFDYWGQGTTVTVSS VL: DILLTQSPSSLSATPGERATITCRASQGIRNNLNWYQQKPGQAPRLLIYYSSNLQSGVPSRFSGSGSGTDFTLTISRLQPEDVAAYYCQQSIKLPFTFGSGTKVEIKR | 0.197 |
| rhuMAb 420 (antibody, human IgG1, V domains shown, X420 VH and X380 VL with human IgG1 and human kappa constant regions; also called X420 (IgG1)) VH: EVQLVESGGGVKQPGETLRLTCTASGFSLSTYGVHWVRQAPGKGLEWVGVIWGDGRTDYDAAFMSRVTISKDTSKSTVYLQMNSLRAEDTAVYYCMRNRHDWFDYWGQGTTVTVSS VL: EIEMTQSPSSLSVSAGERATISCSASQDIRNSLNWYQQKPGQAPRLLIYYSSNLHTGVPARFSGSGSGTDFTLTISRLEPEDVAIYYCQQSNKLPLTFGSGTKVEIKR | 0 |
| rhuMAb 412 (antibody, human IgG1, V domains shown, X385 VH and X380 VL with human IgG1 and human kappa constant regions; also called X412) VH: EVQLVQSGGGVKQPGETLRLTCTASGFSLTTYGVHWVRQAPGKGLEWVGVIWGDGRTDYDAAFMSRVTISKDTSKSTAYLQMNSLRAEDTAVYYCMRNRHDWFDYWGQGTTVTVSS VL: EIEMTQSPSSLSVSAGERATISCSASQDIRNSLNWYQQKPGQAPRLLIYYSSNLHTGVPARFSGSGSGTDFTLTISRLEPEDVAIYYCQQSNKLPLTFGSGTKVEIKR | 0 |

Next, consider the following binder.
Mean Signal Value reported for this binder rhuMAb 409 (antibody, human IgG1, V domains shown, CM03 VH and VL with human IgG1 heavy chain constant region and human kappa constant region; also called X409) VH: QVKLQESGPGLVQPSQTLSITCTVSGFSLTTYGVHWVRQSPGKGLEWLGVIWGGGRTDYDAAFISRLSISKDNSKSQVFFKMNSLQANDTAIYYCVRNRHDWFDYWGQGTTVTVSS VL: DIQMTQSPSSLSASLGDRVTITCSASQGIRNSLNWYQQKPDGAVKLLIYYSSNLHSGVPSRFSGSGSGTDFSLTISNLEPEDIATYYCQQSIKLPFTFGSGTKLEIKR : 0
